System: MOLT-4
Assay: NCI tumour cell line growth inhibition, 48 h
Activity calls are given as the source filed them. Rule as the data show it: active = GI50 up to about 1.1 µM and inactive = higher.
Can you tell me GI50 for the items I'm about to list?

Query :: Would you mind telling me what GI50 value was observed for Nc1c(Cl)c([N+](=O)[O-])cc2c1OCCCCO2 ?
Result :: > 100 µM (inactive)

Query :: Would you mind telling me what GI50 value was observed for CN1C(=O)C23CCCC2CC1(c1ccccc1)S3 (stereo unspecified) ?
Result :: > 100 µM (inactive)

Query :: Would you mind telling me what GI50 value was observed for Cc1csc2c1-n1cccc1C2=O ?
Result :: > 100 µM (inactive)

Query :: Would you mind telling me what GI50 value was observed for Cc1c(C)c([N+](=O)[O-])c2c(c1N)C(=O)c1ccccc1C2=O ?
Result :: > 100 µM (inactive)

Query :: Would you mind telling me what GI50 value was observed for CC(=O)C(CN(C)Cc1ccccc1)C(c1ccccc1)c1c(O)c2ccccc2oc1=O (stereo unspecified) ?
Result :: > 100 µM (inactive)

Query :: Would you mind telling me what GI50 value was observed for CC#CCOC(=O)c1ccccc1OC(C)=O ?
Result :: > 100 µM (inactive)

----------
System: 786-0
Test: NCI tumour cell line growth inhibition, 48 h
The source made the active and inactive calls. Rule as the data show it: active = GI50 up to about 1.1 µM and inactive = higher.
quantity-measured: GI50

Query :: Would you mind telling me what GI50 value was observed for CC1=NN(c2nc(N)nc(/C(C#N)=C\c3cccc([N+](=O)[O-])c3)n2)C(C)(C)C1 ?
Result :: 6.58 µM (inactive)

Query :: Would you mind telling me what GI50 value was observed for N#Cc1c(-c2ccc(Cl)cc2)c2c([nH]c1=O)-c1cc([N+](=O)[O-])ccc1CCC2 ?
Result :: 25.1 µM (inactive)

Query :: Would you mind telling me what GI50 value was observed for O=C(c1cccnc1)N1N=C(c2ccc(Cl)cc2)CC1(O)c1cc(F)c(Cl)cc1Cl (stereo not given) ?
Result :: 17.9 µM (inactive)

Query :: Would you mind telling me what GI50 value was observed for Cc1ncc(COP(=O)(O)O)c(C)c1O ?
Result :: > 100 µM (inactive)

Query :: Would you mind telling me what GI50 value was observed for O=C1CS[C@@](CC(c2ccc(Cl)cc2)c2ccc(Cl)cc2)(c2ccc(Cl)cc2)N1 ?
Result :: 9.66 µM (inactive)

Query :: Would you mind telling me what GI50 value was observed for O=C1/C(=C/c2ccccc2)CN(C(=O)C(F)(F)F)C/C1=C\c1ccccc1 ?
Result :: 1.68 µM (inactive)

Query :: Would you mind telling me what GI50 value was observed for N#CCc1nc2cc(C(F)(F)F)ccc2s1 ?
Result :: 37.3 µM (inactive)

Query :: Would you mind telling me what GI50 value was observed for Oc1ncnc2c1sc(=S)n2-c1ccccc1 ?
Result :: > 100 µM (inactive)

Query :: Would you mind telling me what GI50 value was observed for COc1ccc(CN(CCc2c[nH]c3ccccc23)Cc2ccc(OC)cc2)cc1 ?
Result :: 3.08 µM (inactive)

Query :: Would you mind telling me what GI50 value was observed for COc1ccc(C2S/C(=C\c3cccc(OC)c3)C(=O)N2NC(=O)Cc2ccccc2)cc1 (stereo not given) ?
Result :: > 100 µM (inactive)

----------
Tested on: OVCAR-5
Assay: NCI tumour cell line growth inhibition, 48 h
Calls of active or inactive are those of the source. Cut-off read from the data, not from the text of the source: active = GI50 up to about 1.1 µM and inactive = higher.
// one of Yes = active, No = inactive, no free text

Query :: Outcome? NC(=S)N/N=C/c1ccc(OC(=O)COc2ccccc2Cl)cn1
Result :: No

Query :: Outcome? COc1cc(/C=C\c2ccc(C)cc2)cc(OC)c1OC
Result :: Yes

Query :: Outcome? CCC/C=C/C=C\C(=O)O[C@@H]1[C@@H](C)[C@]2(O)[C@@H]3C=C(C)C(=O)[C@H]3CC(COC(C)=O)=C[C@H]2[C@@H]2C(C)(C)[C@]12OC(C)=O
Result :: No

Query :: Outcome? O=S(=O)(O)c1ccc(/N=N/c2ccc(/N=N/c3c(O)ccc4ccccc34)c(S(=O)(=O)O)c2)cc1
Result :: No

Query :: Outcome? CC(=O)/C=C(/C=N/O)c1ccccc1
Result :: No

Query :: Outcome? O=C1c2cccc3cc4ccccc4c(c23)C(=O)N1CCNCCN1C(=O)c2cccc3cc4ccccc4c(c23)C1=O
Result :: Yes

Query :: Outcome? C/C(=C\c1ccccc1)C(=O)NCc1ccc(C(=O)NCCC(C)C)cc1
Result :: No

Query :: Outcome? COc1ccc2nc3ccc(OC)cc3c(SCc3ccc([N+](=O)[O-])cc3)c2c1
Result :: No

Query :: Outcome? CC(=O)c1cccc(NC(=O)C(=O)Nn2c(N)nnc2N)c1
Result :: No

Sourced from ChEMBL document CHEMBL1201862
